The values you see were collected from patent US20130085157A1.

Listing of entries alongside the reported pEC50.
molecular target: human TGR5 bile acid receptor (Homo sapiens); construct: The full length TGR5 gene is inserted into pCMV6 vector DNA (Origene); expressed in transfected cells; assay: TGR5 receptor activation, HTRF cAMP assay in 293/humanTGR5 cells; type: cell-based; settings: activation of 293/humanTGR5 (HEK 293) cells measured by cAMP levels, 30 minutes at 37° C., relative to vehicle and 50 μM of Compound 7
pEC50: −log10 of the molar value.

Illustrative cases are given below, each with its answer.
compound	assay_target	pEC50
CC(c1ccccc1)c1sc2nnc(SCc3c(F)cccc3Cl)n2c1-c1ccc(F)cc1 (stereo not drawn) [Example 98]	human TGR5 bile acid receptor (Homo sapiens)	4.30 to 5.30
COc1ccc(C(C)(C)c2sc3nnc(SCc4c(F)cccc4Cl)n3c2-c2ccccc2)cc1OC [Example 11]	human TGR5 bile acid receptor (Homo sapiens)	5.30 to 6.30

Moving on to another compound below.
Data point: CCc1sc2nnc(SCc3ccc4c(c3)OCO4)n2c1-c1ccccc1 [Example 48] ; pEC50 = 4.30 to 5.30

---

EC50 for assorted molecules
target: human TGR5 bile acid receptor (Homo sapiens, UniProt Q8TDU6); construct: The full length TGR5 gene is inserted into pCMV6 vector DNA (Origene); test: TGR5 receptor activation, HTRF cAMP assay in 293/humanTGR5 cells; conditions: activation of 293/humanTGR5 (HEK 293) cells measured by cAMP levels, 30 minutes at 37° C., relative to vehicle and 50 μM of Compound 7
Sequence (Q8TDU6 whole entry): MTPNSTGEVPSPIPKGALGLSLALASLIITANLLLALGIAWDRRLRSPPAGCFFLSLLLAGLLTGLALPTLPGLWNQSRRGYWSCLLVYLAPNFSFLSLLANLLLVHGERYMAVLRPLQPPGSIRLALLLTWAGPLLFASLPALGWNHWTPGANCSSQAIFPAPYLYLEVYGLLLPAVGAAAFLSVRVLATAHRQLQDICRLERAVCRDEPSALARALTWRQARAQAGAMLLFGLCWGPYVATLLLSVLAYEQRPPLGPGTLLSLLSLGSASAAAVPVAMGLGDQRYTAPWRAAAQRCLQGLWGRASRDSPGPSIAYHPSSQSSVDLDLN

molecule	EC50
c1ccc(CCSc2nnc3scc(-c4ccccc4)n23)cc1 [Example 30]	5 to 50 µM
Cc1ccc(N(C)C(=O)c2sc3nnc(SCc4ccc5c(c4)OCO5)n3c2-c2ccccc2)cc1Cl [Example 3]	0.5 to 5 µM
COc1cc(Br)c(Cc2sc3nnc(SCc4c(F)cccc4Cl)n3c2-c2ccc(F)c(Cl)c2)cc1OC [Example 119]	0.5 to 5 µM

// moving on: another record for EC50
In plain terms, Fc1cccc(Cl)c1CSc1nnc2scc(-c3ccccc3)n12 [Example 19] has a documented EC50 of 5 to 50 µM

---

Attribute: pEC50
target: human TGR5 bile acid receptor (Homo sapiens); construct: The full length TGR5 gene is inserted into pCMV6 vector DNA (Origene); assay: TGR5 receptor activation, HTRF cAMP assay in 293/humanTGR5 cells; conditions: activation of 293/humanTGR5 (HEK 293) cells measured by cAMP levels, 30 minutes at 37° C., relative to vehicle and 50 μM of Compound 7
pEC50: −log10 of the molar value.

Cc1nnc2sc(SCc3c(F)cccc3Cl)c(-c3ccccc3)n12 4.30 to 5.30
Fc1ccc(-c2csc3nnc(SCc4ccc5c(c4)OCO5)n23)cc1Br > 6.30
c1cc(-c2csc3nnc(SCc4ccc5c(c4)OCO5)n23)cc(C2CC2)c1 5.30 to 6.30
COc1ccc(Cc2sc3nnc(SCc4c(F)cccc4Cl)n3c2-c2ccc(F)c(Cl)c2)cc1Cl 5.30 to 6.30

We next turn to a different compound, shown below.
// Fc1cccc(Cl)c1CSc1nnc2scc(-c3cccc(Cl)c3)n12 : pEC50 value = 5.30 to 6.30

---

Target: human TGR5 bile acid receptor (Homo sapiens, UniProt Q8TDU6)
Construct: The full length TGR5 gene is inserted into pCMV6 vector DNA (Origene)
Test: TGR5 receptor activation, HTRF cAMP assay in 293/humanTGR5 cells
Details: activation of 293/humanTGR5 (HEK 293) cells measured by cAMP levels, 30 minutes at 37° C., relative to vehicle and 50 μM of Compound 7
Protocol: Transformed E. coli stocks containing cDNA for the full length human TGR5 bile acid receptor (IMAGE clone #5221127) are obtained from Open Biosystems. Cultures are grown in LB broth, and cDNA is purified using Qiagen mini-prep columns. […] Levels of resulting cAMP for each treatment condition are then determined by use of an HTRF cAMP assay (CisBio) following the manufactures directions. […]
pEC50: −log10 of the molar value.
assay_metric: pEC50

Example results:
compound	assay_metric	result
COc1cc(Cl)c(Cc2sc3nnc(SCc4ccc5c(c4)OCO5)n3c2-c2cccc(Cl)c2)cc1OC [Example 127]	pEC50	5.30 to 6.30
COc1ccc(Cc2sc3nnc(SCc4ccc(F)cc4F)n3c2-c2ccc(F)c(Cl)c2)cc1Cl [Example 106]	pEC50	5.30 to 6.30
Fc1ccc(-c2csc3nnc(SCc4ccc5c(c4)OCO5)n23)cc1 [Example 24]	pEC50	4.30 to 5.30
c1ccc(-c2csc3nnc(CCc4ccc5c(c4)OCO5)n23)cc1 [Example 4]	pEC50	4.30 to 5.30
c1ccc2cc(-c3csc4nnc(SCc5ccc6c(c5)OCO6)n34)ccc2c1 [Example 131]	pEC50	4.30 to 5.30
OC(c1ccc(F)cc1)c1sc2nnc(SCc3ccc4c(c3)OCO4)n2c1-c1ccccc1 (centres unmarked) [Example 7]	pEC50	4.30 to 5.30
COc1ccc(Cc2sc3cnc(SCc4c(F)cccc4Cl)n3c2-c2cccc(Cl)c2)cc1OC [Example 18]	pEC50	> 6.30

# pEC50 of Fc1cccc(Cl)c1CSc1cnc2scc(-c3cccc(Cl)c3)n12 [Example 138] = 5.30 to 6.30

---

biological target: human TGR5 bile acid receptor (Homo sapiens); construct: The full length TGR5 gene is inserted into pCMV6 vector DNA (Origene); experiment: TGR5 receptor activation, HTRF cAMP assay in 293/humanTGR5 cells; settings: activation of 293/humanTGR5 (HEK 293) cells measured by cAMP levels, 30 minutes at 37° C., relative to vehicle and 50 μM of Compound 7
assay_metric: EC50

As a guide, the following entries are already answered.
Brc1cccc(-c2csc3nnc(SCc4ccc5c(c4)OCO5)n23)c1 < 0.5 µM
Cc1ccc(Nc2nnc3scc(-c4cc(Cl)ccc4Cl)n23)cc1Cl 0.5 to 5 µM
Cc1ccc(N(C)C(=O)c2sc3nncn3c2-c2ccccc2)cc1Cl 0.5 to 5 µM

Short answer for COc1cc(-c2csc3nnc(SCc4ccc5c(c4)OCO5)n23)ccc1F : EC50 was 0.5 to 5 µM

Reported EC50 for Cc1ccc(-c2csc3nnc(SCc4c(F)cccc4Cl)n23)cc1Cl was 0.5 to 5 µM

Reported EC50 of Clc1ccc(CSc2nnc3scc(-c4ccccc4)n23)cc1 : 0.5 to 5 µM

The compound listed as COc1cc(Br)c(Cc2sc3nnc(SCc4c(F)cccc4Cl)n3c2-c2ccc(F)c(Cl)c2)c(Br)c1OC has a reported EC50 of 0.5 to 5 µM

Record COc1ccc(Cc2sc3nnc(SCc4c(F)cccc4Cl)n3c2-c2cccc(Cl)c2)cc1OC , field EC50: 0.5 to 5 µM

Value of measured EC50 for the entry Fc1cccc(Cl)c1CSc1ncc2scc(-c3cccc(Cl)c3)n12 : < 0.5 µM

EC50 recorded for this compound, COc1ccc(Cc2sc3nnc(SCc4c(F)cccc4Cl)n3c2-c2ccc(F)cc2)cc1OC , is 0.5 to 5 µM

Reported EC50 of CN(C(=O)C(C)(C)C)c1cc(F)ccc1-c1csc2nnc(SCc3ccc4c(c3)OCO4)n12 : 5 to 50 µM

For Fc1ccc(-c2c(-c3c(F)cccc3Cl)sc3nnc(Cc4ccc5c(c4)OCO5)n23)cc1 the compound record lists EC50 as 5 to 50 µM

Value of EC50 reported for the compound COc1ccc(-c2csc3nnc(SCc4ccc5c(c4)OCO5)n23)c(Cl)c1 is 0.5 to 5 µM

For reference, reported EC50 for Clc1cccc(-c2csc3nnc(SCc4ccc5c(c4)OCO5)n23)c1Cl stands at 0.5 to 5 µM

What the record says about COC(=O)c1cccc(CSc2nnc3scc(-c4cccc(Br)c4)n23)c1 : EC50 is 0.5 to 5 µM
